- Study system: GST-Hu-p50 (Homo sapiens, UniProt P19838 7-356)
- Sequence (P19838 7-356): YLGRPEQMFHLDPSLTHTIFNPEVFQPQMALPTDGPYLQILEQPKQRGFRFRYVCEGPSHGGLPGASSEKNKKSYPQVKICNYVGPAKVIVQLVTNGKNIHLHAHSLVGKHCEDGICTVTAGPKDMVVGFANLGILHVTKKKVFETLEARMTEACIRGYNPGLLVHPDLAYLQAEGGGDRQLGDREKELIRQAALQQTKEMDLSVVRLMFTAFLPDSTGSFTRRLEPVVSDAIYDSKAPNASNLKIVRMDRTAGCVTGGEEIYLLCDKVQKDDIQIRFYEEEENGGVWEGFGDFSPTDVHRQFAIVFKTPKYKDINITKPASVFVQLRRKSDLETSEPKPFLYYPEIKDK
- Experiment notes: protein-binding microarray (PBM); PBM: ~300 nM protein, 6 mM HEPES pH 7.8, 80 mM KCl, 0.5 mM EDTA, 0.5 mM EGTA, 6% glycerol, 35 ng/ul poly-dIdC, 1% milk, 1 h, room temperature; Ap Aiptasia and Nv Nematostella (sea anemones) / Co Capsaspora / Aq Amphimedon (sponge) / Dm Drosophila / Hu human; RHD is the Rel homology domain; high values mean tight binding
- Measurement conditions: dsDNA, one strand shown
Mark True for binding signal under 6 z-score, False if at or over.

# Chain, Cat
data = [
    ("CCGATTAACATCAGGGGATTGGATGATGTTAATCGGGTCTTGATTCGCTTGACGCTGCTG", "True"),
    ("CCGATTAACATCAAGGGGGATTATGATGTTAATCGGGTCTTGATTCGCTTGACGCTGCTG", "False"),
    ("CCGATTAACATCAAGGTTTTTCCTGATGTTAATCGGGTCTTGATTCGCTTGACGCTGCTG", "True"),
    ("CCGATTAACATCAGGAAGCCCCCTGATGTTAATCGGGTCTTGATTCGCTTGACGCTGCTG", "True"),
    ("CCGATTAACATCAATATTTCCCCTGATGTTAATCGGGTCTTGATTCGCTTGACGCTGCTG", "False"),
    ("CCGATTAACATCAGAGTGGGAAATGATGTTAATCGGGTCTTGATTCGCTTGACGCTGCTG", "True"),
    ("CCGATTAACATCACGGGATTTCGTGATGTTAATCGGGTCTTGATTCGCTTGACGCTGCTG", "True"),
    ("CCGATTAACATCAGGGGAAGTTATGATGTTAATCGGGTCTTGATTCGCTTGACGCTGCTG", "False"),
    ("CCGATTAACATCAGGGGGATCCATGATGTTAATCGGGTCTTGATTCGCTTGACGCTGCTG", "True"),
    ("CCGATTAACATCAAGGGGGATCCTGATGTTAATCGGGTCTTGATTCGCTTGACGCTGCTG", "False"),
    ("CCGATTAACATCAGGGCTCCCCCTGATGTTAATCGGGTCTTGATTCGCTTGACGCTGCTG", "True"),
    ("CCGATTAACATCAGGGAGTCCCCTGATGTTAATCGGGTCTTGATTCGCTTGACGCTGCTG", "False"),
    ("CCGATTAACATCACACATGCCCCTGATGTTAATCGGGTCTTGATTCGCTTGACGCTGCTG", "True"),
    ("CCGATTAACATCAAGGGGGGGTGTGATGTTAATCGGGTCTTGATTCGCTTGACGCTGCTG", "True"),
    ("CCGATTAACATCACACTACCCCCTGATGTTAATCGGGTCTTGATTCGCTTGACGCTGCTG", "True"),
    ("CCGATTAACATCACGGGAAATTCTGATGTTAATCGGGTCTTGATTCGCTTGACGCTGCTG", "True"),
    ("CCGATTAACATCAAAAAAGTCCCTGATGTTAATCGGGTCTTGATTCGCTTGACGCTGCTG", "False"),
    ("CCGATTAACATCAAATTCCCGCCTGATGTTAATCGGGTCTTGATTCGCTTGACGCTGCTG", "True"),
    ("CCGATTAACATCAGAAATGCCCATGATGTTAATCGGGTCTTGATTCGCTTGACGCTGCTG", "True"),
    ("CCGATTAACATCATTCCCGGAAATGATGTTAATCGGGTCTTGATTCGCTTGACGCTGCTG", "True"),
    ("CCGATTAACATCACAAAAAACCCTGATGTTAATCGGGTCTTGATTCGCTTGACGCTGCTG", "True"),
    ("CCGATTAACATCAGAAGATCCCCTGATGTTAATCGGGTCTTGATTCGCTTGACGCTGCTG", "True"),
    ("CCGATTAACATCAGGGGGAGGGATGATGTTAATCGGGTCTTGATTCGCTTGACGCTGCTG", "True"),
    ("CCGATTAACATCAAATATCCCCTTGATGTTAATCGGGTCTTGATTCGCTTGACGCTGCTG", "False"),
    ("CCGATTAACATCACGGTATTCCCTGATGTTAATCGGGTCTTGATTCGCTTGACGCTGCTG", "True"),
    ("CCGATTAACATCAATTCCCACCCTGATGTTAATCGGGTCTTGATTCGCTTGACGCTGCTG", "True"),
    ("CCGATTAACATCAGGGAATGTTATGATGTTAATCGGGTCTTGATTCGCTTGACGCTGCTG", "True"),
    ("CCGATTAACATCACGAATCCCCCTGATGTTAATCGGGTCTTGATTCGCTTGACGCTGCTG", "False"),
    ("CCGATTAACATCAAGGGGATTTCTGATGTTAATCGGGTCTTGATTCGCTTGACGCTGCTG", "False"),
    ("CCGATTAACATCAAATTATCCCCTGATGTTAATCGGGTCTTGATTCGCTTGACGCTGCTG", "True"),
    ("CCGATTAACATCAAAAACCCCCGTGATGTTAATCGGGTCTTGATTCGCTTGACGCTGCTG", "False"),
    ("CCGATTAACATCAGGGAGTCACCTGATGTTAATCGGGTCTTGATTCGCTTGACGCTGCTG", "True"),
    ("CCGATTAACATCAGGCATTCCCCTGATGTTAATCGGGTCTTGATTCGCTTGACGCTGCTG", "True"),
    ("CCGATTAACATCAGGGAATTTACTGATGTTAATCGGGTCTTGATTCGCTTGACGCTGCTG", "True"),
    ("CCGATTAACATCAGGATTCTCCCTGATGTTAATCGGGTCTTGATTCGCTTGACGCTGCTG", "True"),
]
